Target: T1, PD-1-His (UniProt Q15116 25-167, limits assumed)
T1 construct: also called antigen PD-1-His; not shown: His tag
T1 sequence (Q15116 25-167 limits assumed): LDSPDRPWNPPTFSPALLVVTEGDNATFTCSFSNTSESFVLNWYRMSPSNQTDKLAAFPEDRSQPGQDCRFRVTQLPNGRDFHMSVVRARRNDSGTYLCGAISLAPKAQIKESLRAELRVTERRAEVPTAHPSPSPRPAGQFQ
Test: ELISA on coated PD-1-His (60 ng/well), anti-human Fc-HRP
attribute measured: EC50 (read off the curve)

DFPD1-13 full-length anti-PD-1 monoclonal antibody (antibody, human IgG4 S228P, kappa, V domains shown, Expressed in HEK293E cells and purified on protein A) VH: QVQLVESGGGVVQPGRSLRLDCKASGITFSNNGMHWVRQAPGKGLEWVAVIWYDSSRKYYADSVKGRFTISRDNSKNTLFLQMNSLRAEDTAVYYCATNNDYWGQGTLVTVSS VL: DIQMTQSPSSLSASVGDRVTITCRASQSVSNYLDWYQQKPGKAPKLLIYDASTRATGVPSRFSGSGSGTDFTLTISSLQPEDFATYYCQQNMQLPLTFGQGTKVEIKR
~8 ng/mL
DFPD1-10 full-length anti-PD-1 monoclonal antibody (antibody, human IgG4 S228P, kappa, V domains shown, Expressed in HEK293E cells and purified on protein A) VH: QVQLVESGGGVVQPGRSLRLDCKASGITFSNYGMHWVRQAPGKGLEWVAVIWYDSSRKYYADSVKGRFTISRDNSKNTLFLQMNSLRAEDTAVYYCATNNDYWGQGTLVTVSS VL: DIQMTQSPSSLSASVGDRVTITCRASQSVSNYLDWYQQKPGKAPKLLIYDASTRATGVPSRFSGSGSGTDFTLTISSLQPEDFATYYCQQNMQLPLTFGQGTKVEIKR
~7 ng/mL
DFPD1-12 full-length anti-PD-1 monoclonal antibody (antibody, human IgG4 S228P, kappa, V domains shown, Expressed in HEK293E cells and purified on protein A) VH: QVQLVESGGGVVQPGRSLRLDCKASGITFSNYGMHWVRQAPGKGLEWVAVIWYDGSKKYYADSVKGRFTISRDNSKNTLFLQMNSLRAEDTAVYYCATNNDYWGQGTLVTVSS VL: DIQMTQSPSSLSASVGDRVTITCRASQSIHNYLDWYQQKPGKAPKLLIYNASTRATGVPSRFSGSGSGTDFTLTISSLQPEDFATYYCQQELHLPLTFGQGTKVEIKR
~6 ng/mL

Given item DFPD1-11 full-length anti-PD-1 monoclonal antibody (antibody, human IgG4 S228P, kappa, V domains shown, Expressed in HEK293E cells and purified on protein A) VH: QVQLVESGGGVVQPGRSLRLDCKASGITFSNNGMHWVRQAPGKGLEWVAVIWYDSSRKYYADSVKGRFTISRDNSKNTLFLQMNSLRAEDTAVYYCATNNDYWGQGTLVTVSS VL: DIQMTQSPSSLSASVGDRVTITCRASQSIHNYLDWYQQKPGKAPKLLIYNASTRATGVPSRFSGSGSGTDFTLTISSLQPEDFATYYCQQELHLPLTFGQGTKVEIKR , the value recorded as its EC50 (read off the curve) is ~6 ng/mL

The origin of these recorded values is patent US20190144541A1.
